The entries below are paired with their reported Kd.
- tgt: Axl (Homo sapiens)
- Sequence (P30530 26-894): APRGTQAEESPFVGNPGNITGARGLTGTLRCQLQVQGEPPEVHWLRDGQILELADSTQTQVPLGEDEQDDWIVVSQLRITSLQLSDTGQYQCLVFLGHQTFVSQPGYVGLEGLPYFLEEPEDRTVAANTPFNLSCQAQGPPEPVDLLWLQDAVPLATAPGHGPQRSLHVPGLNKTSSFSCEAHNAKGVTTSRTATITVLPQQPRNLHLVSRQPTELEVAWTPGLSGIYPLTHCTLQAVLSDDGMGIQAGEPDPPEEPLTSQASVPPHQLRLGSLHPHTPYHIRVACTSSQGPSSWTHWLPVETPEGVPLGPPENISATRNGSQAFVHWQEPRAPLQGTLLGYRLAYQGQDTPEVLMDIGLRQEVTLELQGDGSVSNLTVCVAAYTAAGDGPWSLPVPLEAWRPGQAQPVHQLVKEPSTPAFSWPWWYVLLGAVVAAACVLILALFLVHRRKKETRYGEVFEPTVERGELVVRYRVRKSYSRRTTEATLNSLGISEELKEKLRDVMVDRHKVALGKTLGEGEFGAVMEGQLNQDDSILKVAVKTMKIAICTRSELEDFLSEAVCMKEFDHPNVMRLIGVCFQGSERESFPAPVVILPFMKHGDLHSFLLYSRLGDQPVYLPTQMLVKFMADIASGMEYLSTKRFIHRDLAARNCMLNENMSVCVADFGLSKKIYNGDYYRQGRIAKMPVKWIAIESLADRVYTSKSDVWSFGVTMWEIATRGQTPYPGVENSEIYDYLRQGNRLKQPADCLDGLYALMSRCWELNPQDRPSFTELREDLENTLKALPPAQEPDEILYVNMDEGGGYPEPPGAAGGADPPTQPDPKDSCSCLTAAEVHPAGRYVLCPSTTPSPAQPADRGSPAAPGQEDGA
- experiment_notes: LanthaScreen Eu kinase binding assay for Axl
- run_conditions: read-out: Axl kinase binding activity (Kd)

Example entries and their recorded answers appear below.
COCCn1cc(OCC(F)(F)F)c(C(=O)Nc2ccc(Oc3ccnc4cc(OC)c(OC)cc34)nn2)n1; < 100 nM
CNCCOc1cn(C2CC2)nc1C(=O)Nc1ccc(Oc2ccnc3cc(OC)c(OC)cc23)nn1; ≥ 500 nM
COc1cc2nccc(Oc3ccc(NC(=O)c4nn(C5CC5)cc4NCC(F)(F)F)nc3)c2cc1OC; < 100 nM
COc1cc2nccc(Oc3ccc(NC(=O)c4nn(C5CCOC5)cc4OCC(F)(F)F)cn3)c2cc1OC (stereo not drawn); < 100 nM
COc1cc2nccc(Oc3ccc(NC(=O)c4nn(C5CCCC5)cc4OCC(F)(F)F)c(F)c3)c2cc1OC; < 100 nM

Kd value, target or system Axl (Homo sapiens), for COCCn1cc(OCC(F)(F)F)c(C(=O)Nc2ccc(Oc3ccnc4cc(OC)c(OC)cc34)c(C)c2)n1 : < 100 nM

Kd value, target or system Axl (Homo sapiens), for COc1cc2nccc(Oc3ccc(NC(=O)c4nn(CC(C)O)cc4OCC(F)F)nc3)c2cc1OC (stereo not drawn) : < 100 nM

Kd value, target or system Axl (Homo sapiens), for COc1cc2nccc(Oc3ccc(NC(=O)c4nn(CCOC5CC5)cc4OCC(F)(F)F)cc3C)c2cc1OC : < 100 nM

# credit: patent US12162858B2
